Below, each of the compounds is paired with its reported pIC50 value.
Target: c-Met (cytoplasmic domain) (Homo sapiens, UniProt P08581)
Construct: 10 ng/mL c-Met (cytoplasmic domain, Invitrogen Corporation #PV3143); purchased Invitrogen Corporation PV3143
Sequence (P08581 956-1390 limits assumed): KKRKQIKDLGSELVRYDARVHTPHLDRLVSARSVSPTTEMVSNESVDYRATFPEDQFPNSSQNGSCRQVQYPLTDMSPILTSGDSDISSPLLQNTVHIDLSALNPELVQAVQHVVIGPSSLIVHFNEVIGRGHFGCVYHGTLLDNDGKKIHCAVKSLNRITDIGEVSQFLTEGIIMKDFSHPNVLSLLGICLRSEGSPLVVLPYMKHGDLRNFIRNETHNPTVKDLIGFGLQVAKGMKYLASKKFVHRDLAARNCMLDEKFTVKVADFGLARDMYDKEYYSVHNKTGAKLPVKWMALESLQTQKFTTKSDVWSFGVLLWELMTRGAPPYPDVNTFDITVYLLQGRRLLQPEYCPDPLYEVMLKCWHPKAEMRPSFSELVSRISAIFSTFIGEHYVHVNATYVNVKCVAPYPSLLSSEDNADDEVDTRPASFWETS
Experiment: c-Met Kinase Assay (same methods as for ALK, with modifications)
Format: biochemical
Details: c-Met kinase inhibition, 1 μM ATP; read-out: cMet Activity
pIC50: −log10 of the molar value.

compound: Cc1cnc(-c2cccc(F)c2Nc2nc(Nc3ccc4c(c3)CCOC(=O)N4C)ncc2Cl)o1 [Example 1789]
pIC50: 6.00 to 7.00

compound: CNC(=O)c1ccsc1Nc1nc(Nc2ccc3c(c2)CCCC(=O)N3C)ncc1Cl [Example 1487]
pIC50: 6.00 to 7.00

compound: CNC(=O)c1cccc(F)c1Nc1nc(Nc2ccc3c(c2)N(C(C)C)CCCO3)ncc1Cl [Example 1734]
pIC50: > 7.00

compound: CNC(=O)c1cccc(C)c1Nc1nc(Nc2ccc3c(c2)CCOC(=O)N3C)ncc1Cl [Example 1744]
pIC50: > 7.00

compound: C#CCNC(=O)c1cccc(F)c1Nc1nc(Nc2ccc3c(c2)OCCCN3C(C)=O)ncc1Cl [Example 1725]
pIC50: > 7.00

compound: CCN1CC(=O)Nc2cc(Nc3ncc(Cl)c(Nc4ccccc4S(=O)(=O)N(C)C)n3)c(OC)cc2C1 [Example 1659]
pIC50: < 5.00

compound: Cc1cccc(C(N)=O)c1Nc1nc(Nc2ccc3c(c2)C(C)(C)CCC(=O)N3)ncc1Cl [Example 1476]
pIC50: 5.00 to 6.00

compound: CNC(=O)c1cccc(F)c1Nc1nc(Nc2ccc3c(c2)N(C(=O)CN)CCCC3(C)C)ncc1Cl [Example 1617]
pIC50: > 7.00

compound: CCN1C(=O)CN(C(C)=O)Cc2ccc(Nc3ncc(Cl)c(Nc4ccsc4C(=O)NC)n3)cc21 [Example 1853]
pIC50: > 7.00

compound: CCN1CCCC(C)(C)c2ccc(Nc3ncc(Cl)c(Nc4ccc(N5CCOCC5)cc4OC)n3)cc21 [Example 1635]
pIC50: < 5.00

compound: C#CCNC(=O)c1sccc1Nc1nc(Nc2ccc3c(c2)NC(=O)CCC3(C)C)ncc1Cl [Example 1623]
pIC50: < 5.00

compound: CN1C(=O)OCCc2cc(Nc3ncc(Cl)c(Nc4ccccc4-c4nccn4C)n3)ccc21 [Example 1749]
pIC50: 6.00 to 7.00

compound: CNC(=O)c1sc(C(C)(C)C)cc1Nc1nc(Nc2ccc3c(c2)CCOC(=O)N3C)ncc1Cl [Example 1761]
pIC50: 5.00 to 6.00

compound: COc1cc2c(cc1Nc1ncc(Cl)c(Nc3ccccc3S(=O)(=O)N(C)C)n1)CCN(CCO)CC2 [Example 1530]
pIC50: 5.00 to 6.00

compound: CNC(=O)c1ccccc1Nc1nc(Nc2ccc3c(c2)N(CCOC)C(=O)CCC3(C)C)ncc1Cl [Example 1585]
pIC50: 6.00 to 7.00

compound: CNC(=O)c1ccccc1Nc1nc(Nc2cc3c(cc2OC)CCN(CCN2CCOCC2)CC3)ncc1Cl [Example 1524]
pIC50: 5.00 to 6.00

compound: COCCN1CCc2ccc(Nc3ncc(Cl)c(Nc4ccc(N5CCOCC5)cc4OCCC#N)n3)cc2CC1 [Example 1689]
pIC50: 5.00 to 6.00

compound: CNC(=O)c1cc(F)ccc1Nc1nc(Nc2ccc3c(c2)CCOC(=O)N3C)ncc1Cl [Example 1752]
pIC50: > 7.00

compound: COCCOc1cccc(F)c1Nc1nc(Nc2ccc3c(c2)NC(=O)CCC3)ncc1Cl [Example 1695]
pIC50: 6.00 to 7.00

compound: CC1(C)NC(=O)CCc2ccc(Nc3ncc(Cl)c(NC4C5C=CC(C5)C4C(N)=O)n3)cc21 (centres unmarked) [Example 1832]
pIC50: > 7.00

Values were extracted from patent US8148391B2.
